Target: F508del (Homo sapiens, UniProt P13569, DEL508-508)
Construct: expressed in transfected cells
Sequence (P13569 with tags, fused parts or gaps DEL508-508): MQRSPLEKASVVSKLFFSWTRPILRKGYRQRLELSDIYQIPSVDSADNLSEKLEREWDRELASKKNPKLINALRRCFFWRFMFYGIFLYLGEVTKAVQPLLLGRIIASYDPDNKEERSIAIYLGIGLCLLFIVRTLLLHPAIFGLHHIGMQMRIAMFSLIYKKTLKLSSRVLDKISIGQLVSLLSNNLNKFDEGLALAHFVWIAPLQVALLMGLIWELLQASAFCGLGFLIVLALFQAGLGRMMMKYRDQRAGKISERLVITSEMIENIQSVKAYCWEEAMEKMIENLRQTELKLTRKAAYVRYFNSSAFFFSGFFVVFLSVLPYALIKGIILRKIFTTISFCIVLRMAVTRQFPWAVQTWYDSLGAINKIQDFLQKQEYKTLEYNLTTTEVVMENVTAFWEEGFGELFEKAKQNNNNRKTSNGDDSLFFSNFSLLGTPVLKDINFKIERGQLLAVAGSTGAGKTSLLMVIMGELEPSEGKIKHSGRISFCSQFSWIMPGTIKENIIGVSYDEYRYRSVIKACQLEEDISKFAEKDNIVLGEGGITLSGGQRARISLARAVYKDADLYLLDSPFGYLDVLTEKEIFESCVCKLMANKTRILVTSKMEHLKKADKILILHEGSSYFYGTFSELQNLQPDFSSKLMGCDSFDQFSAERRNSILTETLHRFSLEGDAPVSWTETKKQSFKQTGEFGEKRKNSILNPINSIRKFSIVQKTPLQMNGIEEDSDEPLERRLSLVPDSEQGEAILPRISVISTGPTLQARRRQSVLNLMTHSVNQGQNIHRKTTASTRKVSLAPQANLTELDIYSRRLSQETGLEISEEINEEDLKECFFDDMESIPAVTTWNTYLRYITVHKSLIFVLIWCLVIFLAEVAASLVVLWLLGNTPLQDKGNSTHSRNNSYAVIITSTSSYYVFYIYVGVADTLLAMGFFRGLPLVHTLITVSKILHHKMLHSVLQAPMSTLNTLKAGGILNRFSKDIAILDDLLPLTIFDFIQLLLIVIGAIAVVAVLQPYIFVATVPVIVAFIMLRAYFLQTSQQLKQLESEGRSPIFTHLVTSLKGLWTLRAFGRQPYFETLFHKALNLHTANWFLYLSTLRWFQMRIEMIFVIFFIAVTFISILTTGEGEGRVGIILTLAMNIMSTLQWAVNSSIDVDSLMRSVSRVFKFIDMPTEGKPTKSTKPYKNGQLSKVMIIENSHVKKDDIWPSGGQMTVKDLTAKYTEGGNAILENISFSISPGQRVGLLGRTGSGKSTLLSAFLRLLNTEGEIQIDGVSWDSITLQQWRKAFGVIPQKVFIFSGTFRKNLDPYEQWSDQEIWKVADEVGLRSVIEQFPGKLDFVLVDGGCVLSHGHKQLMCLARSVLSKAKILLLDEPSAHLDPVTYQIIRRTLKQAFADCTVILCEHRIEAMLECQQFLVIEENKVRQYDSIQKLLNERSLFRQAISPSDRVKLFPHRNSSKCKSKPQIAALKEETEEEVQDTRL
Assay: Protocol 2: FRET membrane potential optical assay (VIPR), identification of correction compounds
Type: cell-based
Details: F508del CFTR modulator activity; compounds of Table 1; read-out: EC30
metric.name: EC30

1. CCC1(C)C[C@@H](C)CN1c1nc(-c2cc(F)cc(OCC(C)C)c2)ccc1C(=O)NS(=O)(=O)c1cccc(N)n1 (single isomer, unassigned) | < 3000 nM
2. CC1CN(c2ncccc2C(=O)NS(=O)(=O)c2cccc(Oc3cccc(Cl)c3F)n2)C(C)(C)C1 (stereo not drawn) | < 3000 nM
3. CCOc1cc(C)cc(-c2ccc(C(=O)NS(=O)(=O)c3ccc[nH]c3=O)c(N3C[C@@H](C)CC3(C)C)n2)c1 | < 3000 nM
4. CC1CN(c2ncccc2C(=O)NS(=O)(=O)c2cccc(N(C)CCc3cccnc3)n2)C(C)(C)C1 (stereo not drawn) | 3000 to 10000 nM
5. CC1CN(c2ncccc2C(=O)NS(=O)(=O)c2cccc(OCC3CCC3)n2)C(C)(C)C1 (stereo not drawn) | < 3000 nM
6. C[C@@H]1CN(c2nc(C(C)(C)C)c(C(O)C(O)C3CCCC3)cc2C(=O)NS(=O)(=O)c2cccc(N)n2)C(C)(C)C1 (single isomer, unassigned) | < 3000 nM
7. CC1CN(c2ncc(-c3cc(OC(C)C)ccc3Cl)cc2C(=O)NS(=O)(=O)c2cccc(N)n2)C(C)(C)C1 (stereo not drawn) | < 3000 nM
8. COc1ccc(CNc2cccc(S(=O)(=O)NC(=O)c3cccnc3N3CC(C)CC3(C)C)n2)cc1OC (stereo not drawn) | 3000 to 10000 nM
9. CCCC(C)N1CCN(c2cccc(S(=O)(=O)NC(=O)c3cccnc3N3CC(C)CC3(C)C)n2)CC1 (stereo not drawn) | 3000 to 10000 nM
10. Cc1c(F)cccc1-c1ccc(C(=O)NS(=O)(=O)c2cccc(N)n2)c(N2C[C@@H](C)CC2(C)C)n1 | < 3000 nM
11. CC1CN(c2ncccc2C(=O)NS(=O)(=O)c2cccc(NCc3cccs3)n2)C(C)(C)C1 (stereo not drawn) | < 3000 nM
12. C[C@@H]1CN(c2nc(-c3ccc(C#N)cc3)ccc2C(=O)NS(=O)(=O)c2cccnc2N)C(C)(C)C1 | < 3000 nM
13. CC1CN(c2ncccc2C(=O)NS(=O)(=O)c2cccc(NCc3ccc(C(C)C)cc3)n2)C(C)(C)C1 (stereo not drawn) | < 3000 nM
14. CC1CN(c2ncccc2C(=O)NS(=O)(=O)c2cccc(Nc3ccc(C(F)(F)F)cc3)n2)C(C)(C)C1 (stereo not drawn) | < 3000 nM
15. CC1CN(c2ncccc2C(=O)NS(=O)(=O)c2cccc(Nc3ccc(N4CCCCC4)cc3)n2)C(C)(C)C1 (stereo not drawn) | < 3000 nM
16. CCOCCOCCOc1ccn(-c2ccc(C(=O)NS(=O)(=O)c3cccnc3N)c(N3C[C@@H](C)CC3(C)C)n2)n1 | < 3000 nM
17. CC(C)Oc1ccccc1-c1ccc(C(=O)NS(=O)(=O)c2cccnc2N)c(N2C[C@@H](C)CC2(C)C)n1 | 3000 to 10000 nM
18. CCOc1ccc(F)cc1-c1ccc(C(=O)NS(=O)(=O)c2ccc[nH]c2=O)c(N2C[C@@H](C)CC2(C)C)n1 | < 3000 nM
19. Cc1ccc(F)c(-c2ccc(C(=O)NS(=O)(=O)N3CC[C@H](N)C3)c(N3C[C@@H](C)CC3(C)C)n2)c1 | 3000 to 10000 nM
20. CCOc1ccc(-c2ccc(C(=O)NS(=O)(=O)c3ccc[nH]c3=O)c(N3C[C@@H](C)CC3(C)C)n2)cc1 | < 3000 nM
21. CC1CN(c2ncc(-c3ccc(CO)cc3)cc2C(=O)NS(=O)(=O)c2cccc(N)n2)C(C)(C)C1 (stereo not drawn) | 3000 to 10000 nM
